TARGET_OR_TEST_SYSTEM: CYP2C9 (Homo sapiens)
Sequence (P11712 whole entry): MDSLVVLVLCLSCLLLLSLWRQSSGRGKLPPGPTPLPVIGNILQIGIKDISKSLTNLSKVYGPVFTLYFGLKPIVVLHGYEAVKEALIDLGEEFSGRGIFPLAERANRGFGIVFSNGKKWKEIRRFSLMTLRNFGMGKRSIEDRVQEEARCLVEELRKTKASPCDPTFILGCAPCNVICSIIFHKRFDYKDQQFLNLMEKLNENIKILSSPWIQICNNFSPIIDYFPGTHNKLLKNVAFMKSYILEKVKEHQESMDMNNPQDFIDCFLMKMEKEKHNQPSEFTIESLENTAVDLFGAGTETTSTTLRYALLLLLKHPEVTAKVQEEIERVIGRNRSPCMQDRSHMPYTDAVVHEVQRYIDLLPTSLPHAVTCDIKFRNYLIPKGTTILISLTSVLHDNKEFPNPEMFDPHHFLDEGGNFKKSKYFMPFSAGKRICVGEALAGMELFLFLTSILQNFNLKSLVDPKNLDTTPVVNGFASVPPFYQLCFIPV
ASSAY_REMARKS: in vitro
PROPERTY_NAME: inhibition at 1 µM (%)
Answers are plain numbers, in %.

Exercise: Provide value of inhibition at 1 µM for this record tested with CYP2C9 (Homo sapiens): CCOC(=O)C1=C(C)NC(=S)NC1c1ccc(OC)cc1 (stereo not shown)
Key: 3.7

---

ASSAY_REMARKS: in vitro
EXPERIMENTAL_PARAMETERS: PAMPA
PROPERTY_NAME: Papp (×10⁻⁶ cm/s)
Answers are plain numbers, in ×10⁻⁶ cm/s.

The following compounds have reported results that may help.
CCOC(=O)C1=C(C)NC(=S)NC1c1ccc(F)cc1 (stereo not shown) [T13]    18.4
COC(=O)C1=C(C)NC(=O)NC1c1cccc(Br)c1 (stereo not shown) [U12]    2

Now let's try a different one.
Exercise: Suppose we examine the compound COC(=O)C1=C(C)NC(=S)NC1c1cccc(OC)c1 (stereo not shown) [T14] ; what Papp value has been reported?
Key: 3.5

---

ASSAY_REMARKS: in vitro
EXPERIMENTAL_PARAMETERS: PAMPA
PROPERTY_NAME: Papp (×10⁻⁶ cm/s)
Give bare numbers, in ×10⁻⁶ cm/s.

CC1=C(C(=O)Nc2ccc(Cl)cc2)C(c2ccccc2)NC(=O)N1 (stereo not shown) [CU1]    9.5
CC1=C(C(=O)Nc2ccc(Cl)cc2)C(c2ccc(C)cc2)NC(=S)N1 (stereo not shown) [CT4]    4.6
CC1=C(C(=O)Nc2ccc(Cl)cc2)C(c2ccc(C)cc2)NC(=O)N1 (stereo not shown) [CU4]    5.3

For each listed entry, give its Papp.
1. CC1=C(C(=O)Nc2ccc(Cl)cc2)C(c2ccc(Cl)c(Cl)c2)NC(=O)N1 (stereo not shown) [CU5]
2. COc1ccc(C2NC(=S)NC(C)=C2C(=O)Nc2ccc(Cl)cc2)cc1 (stereo not shown) [CT3]
3. COc1ccc(C2NC(=O)NC(C)=C2C(=O)Nc2ccc(Cl)cc2)cc1 (stereo not shown) [CU3]

Key:
1. 13.6
2. 3.4
3. 5.9

---

TARGET_OR_TEST_SYSTEM: hERG (Homo sapiens, UniProt Q12809, species not given)
Sequence (Q12809 whole entry): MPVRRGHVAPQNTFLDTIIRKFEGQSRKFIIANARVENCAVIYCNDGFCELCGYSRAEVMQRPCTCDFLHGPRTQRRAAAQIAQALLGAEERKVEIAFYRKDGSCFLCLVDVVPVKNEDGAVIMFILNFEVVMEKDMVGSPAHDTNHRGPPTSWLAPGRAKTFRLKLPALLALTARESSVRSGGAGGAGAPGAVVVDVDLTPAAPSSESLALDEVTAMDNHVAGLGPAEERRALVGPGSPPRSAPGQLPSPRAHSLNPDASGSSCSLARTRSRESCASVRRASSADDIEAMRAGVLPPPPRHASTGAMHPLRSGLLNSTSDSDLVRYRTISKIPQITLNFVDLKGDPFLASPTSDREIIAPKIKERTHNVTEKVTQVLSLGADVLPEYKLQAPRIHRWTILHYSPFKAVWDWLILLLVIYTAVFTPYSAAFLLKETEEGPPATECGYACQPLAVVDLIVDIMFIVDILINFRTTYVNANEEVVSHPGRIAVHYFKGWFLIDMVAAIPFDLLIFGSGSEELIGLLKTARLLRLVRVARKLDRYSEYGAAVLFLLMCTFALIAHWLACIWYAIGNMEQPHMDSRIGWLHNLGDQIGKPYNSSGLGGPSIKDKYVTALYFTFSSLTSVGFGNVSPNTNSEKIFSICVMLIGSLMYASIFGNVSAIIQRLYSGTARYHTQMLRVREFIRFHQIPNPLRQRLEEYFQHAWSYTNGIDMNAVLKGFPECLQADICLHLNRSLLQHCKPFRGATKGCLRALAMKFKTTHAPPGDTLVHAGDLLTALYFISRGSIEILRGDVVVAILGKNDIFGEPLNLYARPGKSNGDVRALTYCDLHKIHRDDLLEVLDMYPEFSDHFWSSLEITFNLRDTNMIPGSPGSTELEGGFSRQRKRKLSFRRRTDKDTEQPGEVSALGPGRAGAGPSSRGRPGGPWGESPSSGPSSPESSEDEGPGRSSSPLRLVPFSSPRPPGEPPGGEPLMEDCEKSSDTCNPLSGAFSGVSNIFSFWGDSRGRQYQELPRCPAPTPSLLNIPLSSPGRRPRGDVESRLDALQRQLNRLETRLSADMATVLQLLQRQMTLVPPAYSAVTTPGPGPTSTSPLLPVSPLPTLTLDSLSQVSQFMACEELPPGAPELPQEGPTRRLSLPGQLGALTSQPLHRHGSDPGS
ASSAY_REMARKS: hERG channel inhibition
Type: cell-based
pIC50: −log10 of the molar value.
Could you please report measured pIC50 for the items listed next?

CCOC(=O)C1=C(C)NC(=S)NC1c1ccc(Cl)cc1 (centres unmarked)    < 5.00

Now let's try a different one.
Exercise: Provide value of pIC50 for this record tested with hERG (Homo sapiens, UniProt Q12809, species not given): CCOC(=O)C1=C(C)NC(=S)NC1c1ccc(OC)cc1 (centres unmarked)
Key: < 5.00

---

ASSAY_REMARKS: in vitro
EXPERIMENTAL_PARAMETERS: human, liver microsomes
PROPERTY_NAME: microsomal CLint (µL/min/mg)
Give bare numbers, in µL/min/mg.

The following compounds have reported results that may help.
CCOC(=O)C1=C(C)NC(=S)NC1c1ccccc1Cl (stereo not shown)    3
CCOC(=O)C1=C(C)NC(=S)NC1c1ccc(Cl)cc1 (stereo not shown)    7.8
CCOC(=O)C1=C(C)NC(=O)NC1c1ccc(F)cc1 (stereo not shown)    5.4

Exercise: Suppose we examine the compound COC(=O)C1=C(C)NC(=O)NC1c1ccccc1 (stereo not shown) ; what microsomal CLint value has been reported?
Key: 1.2

---

ASSAY_REMARKS: in vitro
EXPERIMENTAL_PARAMETERS: human, liver microsomes
Could you please report measured half-life for the items listed next?
Give bare numbers, in h.

CCOC(=O)C1=C(C)NC(=S)NC1c1ccc(Cl)cc1 (stereo not shown)    2.36
COC(=O)C1=C(C)NC(=O)NC1c1ccccc1 (stereo not shown)    10.7
CCOC(=O)C1=C(C)NC(=S)NC1c1ccccc1Cl (stereo not shown)    3.69

Now let's try a different one.
Exercise: Suppose we examine the compound CCOC(=O)C1=C(C)NC(=O)NC1c1ccc(F)cc1 (stereo not shown) ; what half-life value has been reported?
Key: 2.47

---

TARGET_OR_TEST_SYSTEM: CYP2D6 (Homo sapiens, UniProt P10635)
Sequence (P10635 whole entry): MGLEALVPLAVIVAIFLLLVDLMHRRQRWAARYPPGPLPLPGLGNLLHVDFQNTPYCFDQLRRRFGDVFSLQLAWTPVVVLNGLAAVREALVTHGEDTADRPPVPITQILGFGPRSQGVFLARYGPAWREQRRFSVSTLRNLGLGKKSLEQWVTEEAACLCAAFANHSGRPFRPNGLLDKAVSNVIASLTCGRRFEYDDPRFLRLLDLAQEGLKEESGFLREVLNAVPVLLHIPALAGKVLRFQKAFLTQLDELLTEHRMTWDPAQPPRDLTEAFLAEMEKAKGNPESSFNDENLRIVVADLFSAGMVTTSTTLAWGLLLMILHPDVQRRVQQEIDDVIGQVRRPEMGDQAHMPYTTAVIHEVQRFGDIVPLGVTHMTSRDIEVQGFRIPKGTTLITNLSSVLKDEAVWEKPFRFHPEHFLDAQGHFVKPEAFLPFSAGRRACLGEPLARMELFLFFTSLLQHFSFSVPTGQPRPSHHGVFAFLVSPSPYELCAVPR
ASSAY_REMARKS: in vitro
PROPERTY_NAME: inhibition at 1 µM (%)
Give bare numbers, in %.

Exercise: Suppose we examine the molecule CCOC(=O)C1=C(C)NC(=S)NC1c1ccc(OC)cc1 (stereo not shown) ; what inhibition at 1 µM value has been reported?
Key: -3.2

---

Could you please report measured Papp for the items listed next?
ASSAY_REMARKS: in vitro
EXPERIMENTAL_PARAMETERS: PAMPA

The following compounds have reported results that may help.
CCOC(=O)C1=C(C)NC(=S)NC1c1ccc(Cl)cc1 (centres unmarked)    12.2 ×10⁻⁶ cm/s
CCOC(=O)C1=C(C)NC(=O)NC1c1ccc(Cl)cc1Cl (centres unmarked)    15.3 ×10⁻⁶ cm/s
CCOC(=O)C1=C(C)NC(=S)NC1c1ccc(OC)cc1 (centres unmarked)    8.1 ×10⁻⁶ cm/s
CCOC(=O)C1=C(C)NC(=O)NC1c1ccc(C(F)(F)F)cc1 (centres unmarked)    11.5 ×10⁻⁶ cm/s
CCOC(=O)C1=C(C)NC(=S)NC1c1ccc(OCC)cc1 (centres unmarked)    0.1 ×10⁻⁶ cm/s

For each listed entry, give its Papp.
1. CCOC(=O)C1=C(C)NC(=O)NC1c1ccc(Cl)c(Cl)c1 (centres unmarked)
2. CCOC(=O)C1=C(C)NC(=O)NC1c1cccc(O)c1 (centres unmarked)
3. CCOC(=O)C1=C(C)NC(=S)NC1c1cccc(O)c1 (centres unmarked)
4. CCOC(=O)C1=C(C)NC(=S)NC1c1ccc(Cl)c(Cl)c1 (centres unmarked)
5. CCOC(=O)C1=C(C)NC(=S)NC1c1ccc(C)cc1 (centres unmarked)
6. CCOC(=O)C1=C(C)NC(=O)NC1c1ccc(F)cc1 (centres unmarked)

Key:
1: 15.8 ×10⁻⁶ cm/s; 2: 0.003 ×10⁻⁶ cm/s; 3: 17.7 ×10⁻⁶ cm/s; 4: 16.2 ×10⁻⁶ cm/s; 5: 10.3 ×10⁻⁶ cm/s; 6: 6.2 ×10⁻⁶ cm/s

---

ASSAY_REMARKS: in vitro
EXPERIMENTAL_PARAMETERS: human, liver microsomes
PROPERTY_NAME: remaining at 1 h (%)
Answers are plain numbers, in %.

COC(=O)C1=C(C)NC(=O)NC1c1ccccc1 (stereo not shown)    93
CCOC(=O)C1=C(C)NC(=S)NC1c1ccccc1Cl (stereo not shown)    82.4
CCOC(=O)C1=C(C)NC(=O)NC1c1ccc(F)cc1 (stereo not shown)    74.1

Now let's try a different one.
Exercise: Suppose we examine the compound CCOC(=O)C1=C(C)NC(=S)NC1c1ccc(Cl)cc1 (stereo not shown) ; what remaining at 1 h value has been reported?
Key: 77.7

---

TARGET_OR_TEST_SYSTEM: CYP1A2 (Homo sapiens)
Sequence (P05177 whole entry): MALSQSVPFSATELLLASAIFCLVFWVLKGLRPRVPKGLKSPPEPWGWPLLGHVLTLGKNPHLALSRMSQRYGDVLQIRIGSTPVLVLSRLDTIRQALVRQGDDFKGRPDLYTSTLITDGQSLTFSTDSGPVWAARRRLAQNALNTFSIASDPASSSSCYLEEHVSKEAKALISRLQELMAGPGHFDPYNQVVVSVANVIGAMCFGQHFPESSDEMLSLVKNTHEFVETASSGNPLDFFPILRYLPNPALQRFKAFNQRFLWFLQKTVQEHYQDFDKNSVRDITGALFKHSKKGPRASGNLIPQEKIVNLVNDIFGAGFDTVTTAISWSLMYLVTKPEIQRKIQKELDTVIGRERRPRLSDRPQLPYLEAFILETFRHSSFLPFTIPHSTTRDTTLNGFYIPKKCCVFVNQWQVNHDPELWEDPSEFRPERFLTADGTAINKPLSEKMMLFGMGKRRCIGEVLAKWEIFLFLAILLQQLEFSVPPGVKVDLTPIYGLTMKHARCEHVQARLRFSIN
ASSAY_REMARKS: in vitro
PROPERTY_NAME: inhibition at 1 µM
Report field: quantity (unit follows the number).

Exercise: Provide value of inhibition at 1 µM for this record tested with CYP1A2 (Homo sapiens): CCOC(=O)C1=C(C)NC(=S)NC1c1ccc(OC)cc1 (stereo not shown)
Key: -13.3%

---

ASSAY_REMARKS: in vitro
EXPERIMENTAL_PARAMETERS: PAMPA
Could you please report measured Papp for the items listed next?
Answers are plain numbers, in ×10⁻⁶ cm/s.

The following compounds have reported results that may help.
CC1=C(C(=O)Nc2ccc(Cl)cc2)C(c2ccc(Cl)cc2)NC(=S)N1 (stereo not shown) [CT2]    7.1
CC1=C(C(=O)Nc2ccc(Cl)cc2)C(c2ccccc2)NC(=S)N1 (stereo not shown) [CT1]    3.6
CC1=C(C(=O)Nc2ccc(Cl)cc2)C(c2ccc(Cl)c(Cl)c2)NC(=S)N1 (stereo not shown) [CT5]    7.6

Now let's try a different one.
Exercise: Suppose we examine the compound CC1=C(C(=O)Nc2ccc(Cl)cc2)C(c2ccc(Cl)cc2)NC(=O)N1 (stereo not shown) [CU2] ; what Papp value has been reported?
Key: 7.7
